The measurements presented in this section are drawn from paper PMC11324046.

Measured viability at 48 h, 1000 µM, listed per entry.
- experimental.protocol: in vitro
- recorded.conditions: male, human
Give a bare numeral; the unit % is implied.

Sample answers from the record:
molecule: COc1ccc(OCC(O)CN2CCN(CCO)CC2)c([N+](=O)[O-])c1 (stereo not drawn)
viability at 48 h, 1000 µM (%): 78
--
molecule: OCCN1CCN(CC(O)COc2ccc(F)cc2)CC1 (stereo not drawn)
viability at 48 h, 1000 µM (%): 105
--
molecule: COc1cc([N+](=O)[O-])ccc1OCC(O)CN1CCN(CCO)CC1 (stereo not drawn)
viability at 48 h, 1000 µM (%): 60
--
molecule: O=[N+]([O-])c1ccc(OCC(O)CN2CCN(CCO)CC2)c(F)c1 (stereo not drawn)
viability at 48 h, 1000 µM (%): 81
--
molecule: OCCN1CCN(CC(O)COc2cccc(Cl)c2)CC1 (stereo not drawn)
viability at 48 h, 1000 µM (%): 51

Now let's try a different one.
Entry O=[N+]([O-])c1cc(OCC(O)CN2CCN(CCO)CC2)ccc1Cl (stereo not drawn) ; viability at 48 h, 1000 µM = 44

====

- experimental.protocol: Annexin V/PI flow cytometry viability of irradiated MOLT-4 cells
- Format: cell-based, human
- recorded.conditions: human, MOLT-4 cells, not irradiated; 100 μM, no irradiation, 24 h; representative histogram Fig. 5A; read-out: Viable (annexin V/PI negative) MOLT-4 cells, compound alone
measure.name: viability at 2 h, 100 µM

Entry NCCCNCCS [WR1065, reference compound] ; viability at 2 h, 100 µM = 64%

====

- experimental.protocol: in vitro
- recorded.conditions: male, human
measure.name: viability at 48 h, 5000 µM
Write the figure, then the unit, nothing else.

Entry OCCN1CCN(CC(O)COc2ccc(F)cc2)CC1 (stereo not shown) ; viability at 48 h, 5000 µM = 39%

====

Measured viability at 48 h, 50 µM, listed per entry.
- experimental.protocol: in vitro
- recorded.conditions: male, human
Give a bare numeral; the unit % is implied.

Sample answers from the record:
compound: NCCCNCCS [WR1065, reference compound]
viability at 48 h, 50 µM (%): 19
--
compound: OCCN1CCN(CC(O)COc2ccc(F)cc2)CC1 (stereo not shown)
viability at 48 h, 50 µM (%): 112
--
compound: OCCN1CCN(CC(O)COc2cccc(Cl)c2)CC1 (stereo not shown)
viability at 48 h, 50 µM (%): 99
--
compound: COc1cc([N+](=O)[O-])ccc1OCC(O)CN1CCN(CCO)CC1 (stereo not shown)
viability at 48 h, 50 µM (%): 111
--
compound: COc1ccc(OCC(O)CN2CCN(CCO)CC2)c([N+](=O)[O-])c1 (stereo not shown)
viability at 48 h, 50 µM (%): 99

Entry O=[N+]([O-])c1ccc(OCC(O)CN2CCN(CCO)CC2)c(F)c1 (stereo not shown) ; viability at 48 h, 50 µM = 90

Entry O=[N+]([O-])c1cc(OCC(O)CN2CCN(CCO)CC2)ccc1Cl (stereo not shown) ; viability at 48 h, 50 µM = 111

====

- experimental.protocol: WST-1 proliferation assay, A549
- Type: cell-based
- recorded.conditions: human, A549 cells (lung carcinoma), vs 0.1% DMSO control = 100%, mean ± standard deviation
One threshold, 6%, splits the recorded viability at 48 h, 100 µM values: lower ones are T, equal or higher ones are F.

Take a look at these entries with their results.
molecule: COc1ccc(OCC(O)CN2CCN(CCO)CC2)c([N+](=O)[O-])c1 (centres unmarked)
cat: F
//
molecule: O=[N+]([O-])c1cc(OCC(O)CN2CCN(CCO)CC2)ccc1Cl (centres unmarked)
cat: F
//
molecule: NCCCNCCS [WR1065, reference compound]
cat: T

Now look at this entry.
Lookup: Item COc1cc([N+](=O)[O-])ccc1OCC(O)CN1CCN(CCO)CC1 (centres unmarked) : viability at 48 h, 100 µM beneath 6%, strictly?
Found: F
